- testedTarget: UniProt Q9NYW2
- protocolDetails: hT2R8 antagonist high-throughput FLIPR assay, stable cell line with G16g44, agonist andrographolide
- Assay type: cell-based
- assayContext: Table A; read-out: hT2R8 IC50
Entries whose IC50 is below 3 µM take criterion met; entries at or above 3 µM take criterion not met.

As a guide, the following entries are already answered.
compound	discreteLabel
CO[C@@H](C(=O)Nc1cnn(Cc2c(C)noc2C)c1)c1ccccc1 [Example 4-68]	criterion not met
Cc1noc(C)c1Cn1cc(N(C)C(=O)C(C)c2ccccc2)cn1 (stereo not shown) [Example 4-65]	criterion met
Cc1noc(C)c1Cn1cc(NC(=S)Nc2cccc(C#N)c2)cn1 [Example 4-109]	criterion met

Prompt line: Lab log: compare recorded IC50 with 3 µM; is it strictly lower for COc1cccc(C(=O)Nc2cn(Cc3c(C)noc3C)nc2C)c1 [Example 4-115] ?
Response line: criterion not met

* * *

- testedTarget: hT2R3 (Homo sapiens (Human))
- protocolDetails: hT2R panel inhibition, transient HEK293 G16g44, agonist Chloroquine pH6.5 50 μM
- Format: cell-based
- assayContext: HEK293, compound at 25 μM; receptor activated to EC80 with the corresponding agonist; read-out: screening result against bitter receptor 3
- Method: Specifically, in order to evaluate the inhibitory selectivity of the Compound C compound, this compound was tested against 22 human T2Rs which were deorphaned by Senomyx. These receptors and the bitter ligands that activate these human T2Rs are reported in earlier patent applications which are incorporated by reference herein. These 22 human T2Rs are hT2R1, 3, 4, 5, 7, 8, 9, 10, 13, 14, 16, 44, 51, 54, 55, 61, 63, 64, 65, 67, 71 and 75. […]
Each item that follows carries a reported inhibition at 25 µM.

molecule	inhibition at 25 µM
COc1ccc(CN(Cc2cccnc2)S(=O)(=O)c2ccc(C(=O)O)cc2)cc1	20 to 40%
COc1ccc(CN(Cc2ccccc2)S(=O)(=O)c2ccc(CC(=O)O)cc2)cc1	20 to 40%
Cc1ccc(CN(Cc2ccccc2)S(=O)(=O)c2ccc(C(=O)O)cc2)cc1	40 to 60%
COc1ccc(CN(Cc2ccc(C(=O)O)cc2)S(=O)(=O)c2ccccc2)cc1	40 to 60%
O=C(O)c1ccc(CN(Cc2ccc(F)cc2)S(=O)(=O)c2ccccc2)cc1	20 to 40%
COc1ccc(CN(Cc2ccccc2)S(=O)(=O)c2ccc(C(=O)O)cc2)cc1C	40 to 60%
O=C(O)c1ccc(S(=O)(=O)N(Cc2ccccc2)Cc2ccccc2F)cc1	20 to 40%
O=C(O)c1ccc(S(=O)(=O)N(Cc2ccccc2)Cc2cccc(Cl)c2)cc1	40 to 60%

Below: the item to evaluate.
The recorded inhibition at 25 µM for Cc1ccccc1CN(Cc1ccccc1)S(=O)(=O)c1ccc(C(=O)O)cc1 is 40 to 60%

* * *

- testedTarget: hT2R3 (Homo sapiens (Human))
- protocolDetails: hT2R panel inhibition, transient HEK293 G16g44, agonist Chloroquine pH6.5 50 μM
- Type: cell-based
- assayContext: HEK293, compound at 25 μM; receptor activated to EC80 with agonist; read-out: inhibition of bitter receptor 3
Measured inhibition at 25 µM of individual entries

Would you please look over these solved cases?
Cc1cc2c(cc1S(=O)(=O)Nc1ccc(F)cc1)n(C)c(=O)c(=O)n2C 20 to 40%
COc1ccc(OC)c(/C=C2\SC(=S)N(CCC(=O)O)C2=O)c1 20 to 40%
CCCOc1ccc(CN(Cc2ccccc2)S(=O)(=O)c2ccc(C(=O)O)cc2)cc1 40 to 60%
CC(C)Oc1ccc(CN(Cc2ccccc2)S(=O)(=O)c2ccc(C(=O)O)cc2)cc1 40 to 60%

Read the next record carefully.
Query CCOc1ccc(CN(Cc2ccccc2)S(=O)(=O)c2ccc(C(=O)O)cc2)cc1 yields inhibition at 25 µM of 40 to 60%

* * *

- testedTarget: hT2R3 (Homo sapiens (Human), UniProt Q9NYW6)
- Sequence (Q9NYW6 whole entry): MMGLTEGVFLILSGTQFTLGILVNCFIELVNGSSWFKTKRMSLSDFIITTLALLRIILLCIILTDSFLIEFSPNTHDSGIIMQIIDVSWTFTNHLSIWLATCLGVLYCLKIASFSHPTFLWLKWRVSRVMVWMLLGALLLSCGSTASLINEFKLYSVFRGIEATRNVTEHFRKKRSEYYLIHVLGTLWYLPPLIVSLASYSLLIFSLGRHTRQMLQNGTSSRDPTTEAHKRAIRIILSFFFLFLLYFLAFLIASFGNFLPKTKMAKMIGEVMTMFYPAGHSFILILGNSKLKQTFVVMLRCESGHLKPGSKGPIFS
- protocolDetails: hT2R panel inhibition, transient HEK293 G16g44, agonist Chloroquine pH6.5 50 μM
- Format: cell-based
- assayContext: HEK293, compound at 25 μM; receptor activated to EC80 with the corresponding agonist; read-out: screening result against bitter receptor 3
measuredQuantity: inhibition at 25 µM

Below: 3 compounds and their reported inhibition at 25 µM.
compound	inhibition at 25 µM
COc1ccc(CN(Cc2ccc(C)cc2)S(=O)(=O)c2ccc(C(=O)O)cc2)cc1 [Example 5-66]	20 to 40%
Cc1ccc(S(=O)(=O)N(Cc2ccc(F)cc2)Cc2ccc(C(=O)O)cc2)cc1 [Example 5-37]	20 to 40%
COc1ccc(CN(Cc2cc(OC)cc(OC)c2)S(=O)(=O)c2ccc(C(=O)O)cc2)cc1 [Example 5-67]	40 to 60%

Record COc1ccc(CN(Cc2ccsc2)S(=O)(=O)c2ccc(C(=O)O)cc2)cc1 [Example 5-62] / hT2R3 (Homo sapiens (Human), UniProt Q9NYW6), inhibition at 25 µM recorded as 20 to 40%

The value of inhibition at 25 µM recorded for CCOc1ccc(CN(Cc2ccco2)S(=O)(=O)c2ccc(C(=O)O)cc2)cc1 [Example 5-3] when tested on hT2R3 (Homo sapiens (Human), UniProt Q9NYW6) reads 40 to 60%

Reading of inhibition at 25 µM for O=C(O)C1CCC(CN(Cc2ccc(F)cc2)S(=O)(=O)c2ccccc2)CC1 (centres unmarked) [Example 5-22] with hT2R3 (Homo sapiens (Human), UniProt Q9NYW6): 40 to 60%

The observed inhibition at 25 µM for Cc1cccc(CN(Cc2ccccc2)S(=O)(=O)c2ccc(C(=O)O)cc2)c1 [Example 5-73] when tested with hT2R3 (Homo sapiens (Human), UniProt Q9NYW6) stands at 40 to 60%

hT2R3 (Homo sapiens (Human), UniProt Q9NYW6) assay, compound CC(=O)Nc1ccc(S(=O)(=O)N(Cc2ccccc2)CC2CCC(C(=O)O)CC2)cc1 (centres unmarked) [Example 5-21] , recorded inhibition at 25 µM = 20 to 40%

# lookup: COc1ccc(CN(Cc2ccoc2)S(=O)(=O)c2ccc(C(=O)O)cc2)cc1 [Example 5-27] on hT2R3 (Homo sapiens (Human), UniProt Q9NYW6), inhibition at 25 µM = 40 to 60%

* * *

Each item that follows carries a reported log10 IC50.
- testedTarget: hT2R8 (Homo sapiens (Human))
- Sequence (Q9NYW2 whole entry): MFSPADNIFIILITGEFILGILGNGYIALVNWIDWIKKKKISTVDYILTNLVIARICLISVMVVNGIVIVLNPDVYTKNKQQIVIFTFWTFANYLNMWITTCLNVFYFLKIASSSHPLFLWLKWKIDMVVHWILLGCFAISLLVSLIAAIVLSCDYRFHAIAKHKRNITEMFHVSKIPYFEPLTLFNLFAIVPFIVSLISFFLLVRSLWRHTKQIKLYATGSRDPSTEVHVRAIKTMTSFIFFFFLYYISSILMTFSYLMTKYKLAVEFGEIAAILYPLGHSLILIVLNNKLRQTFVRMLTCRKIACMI
- protocolDetails: hT2R8 antagonist high-throughput FLIPR assay, stable cell line with G16g44, agonist andrographolide
- Format: cell-based
- assayContext: read-out: IC50 on hT2R8 bitter receptor
Reminder: these figures are log10 of reported IC50, in µM before transformation.

molecule	testedTarget	log10 IC50
Cc1noc(C)c1Cn1cc(NC(=O)Cc2ccccc2)cn1	hT2R8 (Homo sapiens (Human))	-0.28
Cc1noc(C)c1Cn1cc(N2C(=O)CN(CCc3ccccc3F)C2=O)cn1	hT2R8 (Homo sapiens (Human))	-0.89
Cc1noc(C)c1Cn1cc(N2C(=O)c3ccccc3C2=O)cn1	hT2R8 (Homo sapiens (Human))	-0.74
Cc1noc(C)c1Cn1cc(N2C(=O)NC(CC3CCCC3)C2=O)cn1 (stereo not drawn)	hT2R8 (Homo sapiens (Human))	-0.51
COc1cccc(CN2CC(=O)N(c3cnn(Cc4c(C)noc4C)c3)C2=O)c1	hT2R8 (Homo sapiens (Human))	-1.15

Measured log10 IC50, COc1ccc(CN2C(=O)N(c3cnn(Cc4c(C)noc4C)c3)C(=O)C2(C)C)cc1OC : -1.10

* * *

- testedTarget: hT2R4 (Homo sapiens (Human), UniProt Q9NYW5)
- Sequence (Q9NYW5 whole entry): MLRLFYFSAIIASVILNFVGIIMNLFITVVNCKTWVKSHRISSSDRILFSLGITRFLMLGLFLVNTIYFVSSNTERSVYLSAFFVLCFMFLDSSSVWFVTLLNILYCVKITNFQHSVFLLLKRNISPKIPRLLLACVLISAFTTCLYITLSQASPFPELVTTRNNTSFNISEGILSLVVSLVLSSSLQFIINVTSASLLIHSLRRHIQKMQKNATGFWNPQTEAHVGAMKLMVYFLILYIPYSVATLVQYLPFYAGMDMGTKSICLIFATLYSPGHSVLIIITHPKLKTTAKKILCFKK
- protocolDetails: hT2R panel inhibition, transient HEK293 G16g44, agonist Chloroquine pH6.5 5 mM
- Assay type: cell-based
- assayContext: HEK293, compound at 25 μM; receptor activated to EC80 with the corresponding agonist; class symbols; read-out: screening result against bitter receptor 4
measuredQuantity: inhibition at 25 µM

Answered examples (5):
compound	testedTarget	measuredValue
O=C(O)C1CCC(CN(Cc2ccc(F)cc2)S(=O)(=O)c2ccccn2)CC1 (centres unmarked)	hT2R4 (Homo sapiens (Human), UniProt Q9NYW5)	20 to 40%
COc1ccc(CN(Cc2ccc(OC)c(OC)c2)S(=O)(=O)c2ccc(C(=O)O)cc2)cc1	hT2R4 (Homo sapiens (Human), UniProt Q9NYW5)	20 to 40%
COc1cccc(CN(Cc2ccc(C(=O)O)cc2)S(=O)(=O)c2ccc(O)cc2)c1	hT2R4 (Homo sapiens (Human), UniProt Q9NYW5)	20 to 40%
CCCN(Cc1ccc(OC)cc1)S(=O)(=O)c1ccc(C(=O)O)cc1	hT2R4 (Homo sapiens (Human), UniProt Q9NYW5)	20 to 40%
CCOc1ccc(CN(Cc2ccco2)S(=O)(=O)c2ccc(C(=O)O)cc2)cc1	hT2R4 (Homo sapiens (Human), UniProt Q9NYW5)	60 to 80%

Short answer for COc1ccc(CN(Cc2ccccc2)S(=O)(=O)Cc2ccc(C(=O)O)cc2)cc1 : inhibition at 25 µM was 20 to 40%

So, COc1ccc(CN(CC2CCCCC2)S(=O)(=O)c2ccc(C(=O)O)cc2)cc1 ? Its inhibition at 25 µM was 40 to 60%

Recorded result, Cc1ccc(S(=O)(=O)N(Cc2ccc(F)cc2)Cc2ccc(C(=O)O)cc2)cc1 , inhibition at 25 µM: 60 to 80%
